assay procedure: in vitro
settings: human, hela cells, % viability
measured metric: viability at 28.5 h, 10 µM (%)
Answers are plain numbers, in %.

compound	viability at 28.5 h, 10 µM, %
COc1ccc(Cn2c(=O)n(S(=O)(=O)c3ccc(C)cc3)c3ccccc32)cc1	95.1

Could I get viability at 28.5 h, 10 µM for every one of these entries?
1. CNS(=O)(=O)c1cccc(C(C)NC(=O)N2CCSCC2)c1 (centres unmarked)
2. Cc1ccc(C2(CN3CCC(NC(=O)CO)CC3)CCCC2)cc1
3. O=C(CCc1cccnc1)Nc1cnc(-c2cccc(OC(F)(F)F)c2)c(-c2cccnc2)n1

Marked response:
1: 95.1; 2: 88.5; 3: 94.5

Batch request: viability at 28.5 h, 10 µM for each of the following compounds.
1. COC(=O)c1c(NC(=O)c2c(C)c(-c3ccc(Cl)cc3Cl)nc3ccccc23)sc2c1CCC(C)C2 (centres unmarked)
2. COC(=O)c1ccc(-c2ccc3[nH]ccc3c2)nc1 [CBK160174T]
3. O=C1c2ccccc2CN1c1ccc(Cl)cc1Cl

Marked response:
1. 82.9
2. 89.1
3. 95

Please give viability at 28.5 h, 10 µM for each item listed below.
1. O=C(O)CCCC(=O)Nc1cc([N+](=O)[O-])ccc1O
2. O=C(O)c1ccc(-c2ccc(/C=C3/NC(=O)N(c4ccc(Cl)cc4)C3=O)o2)cc1
3. Cc1ccc(C(=O)Nc2c(C(=O)Nc3cccnc3)cnn2-c2ccccc2)cc1
4. COc1ccc(-c2ccc(=O)n(CCN)n2)cc1 [CBK270130C]

Marked response:
[102, 103, 92.4, 97.2]

Give viability at 28.5 h, 10 µM for each listed item.
1. CN(C)S(=O)(=O)N1CCC(Cc2ccccc2)CC1
2. Cn1c(SCC(=O)NCCCN2CCOCC2)nc2ccccc2c1=O
3. O=C(CCN1C(=O)c2cc(Cl)c(Cl)cc2C1=O)Nc1cccc(-c2cnc3ccccc3n2)c1
4. Cc1csc(C(Cc2ccsc2)NCc2cccnc2)n1 (centres unmarked)
5. O=C(c1ccc(N2CCSCC2)nc1)N1CCC(N2CCOCC2)CC1
6. O=C(c1c[nH]c(-c2ncn[nH]2)c1)c1ccc(Cl)cc1Cl
7. CCc1ccc(OC)c(S(=O)(=O)NC2CC(C)(C)NC(C)(C)C2)c1

Marked response:
98.2
109
114
96.6
78.6
93.4
101

* * *

assay procedure: in vitro
settings: human, hela cells, % viability
measured metric: viability at 28.5 h, 10 µM (%)
Numbers only, in %.

Solved cases (3 shown):
molecule	unit abbrev	viability at 28.5 h, 10 µM
CC1CN(Cc2c(C(F)(F)F)[nH]c3ncccc23)CC(C)O1 (centres unmarked)	%	88.5
O=C(Nc1ccc(Br)cc1C(=O)O)c1cccs1	%	86.8
CCOC(=O)Cc1csc(SC(C)C(=O)N2CCc3ccccc3C2)n1 (centres unmarked)	%	99.9

Below is a list of molecules. For each, state its recorded viability at 28.5 h, 10 µM.
1. COc1ccc(F)cc1-c1cccc(CC2(C(=O)NCc3cccs3)CCOCC2)c1
2. CC(=O)N1CCN(C[C@@H]2C=C(C)[C@H](Cc3nnc(C)o3)C[C@H]2C(C)C)CC1
3. Cc1nn(CC(=O)NC2CCC2)c(=O)c2cc3sccc3n12
4. COc1nccnc1N1CCN(CCc2ccccc2)CC1

Marked response:
1. 90.6
2. 114
3. 108
4. 102

Please report viability at 28.5 h, 10 µM for every entry that follows.
1. COc1ncc(-c2cnc3[nH]c(=O)n(CC4CCOCC4)c3n2)cn1
2. CCC(CO)Nc1cncc(-c2cc(OC)c(OC)c(OC)c2)n1 (centres unmarked)
3. COc1ccc(-n2c(CNCc3ccc4c(c3)OCO4)nc3ccccc3c2=O)cc1
4. CCOC(=O)CN1CCC(Oc2nccnc2OCc2cc(C)on2)CC1 [CBK082960T]
5. CCN1CCN(c2cc(N3CCN(C(=O)COc4ccccc4F)C(C)C3)c([N+](=O)[O-])cc2F)CC1 (centres unmarked)

Marked response:
98.1
98.9
102
105
100

Here are 8 molecules. What values of viability at 28.5 h, 10 µM were reported for them?
1. COc1ccc(C2(CNC(=O)c3ccc(C)cc3)CCOCC2)cc1
2. COc1ccc(-c2nnn(C3CCNCC3)n2)cc1OC [CBK269870C]
3. CC(=O)NC1(c2ccc(F)cc2)CCN(Cc2cccnc2)CC1
4. CC(C)Nc1cncc(OC2CCOC2)n1 (centres unmarked)
5. c1ccc(Cn2cc(-c3nccnc3OC3CCCCC3)cn2)cc1
6. CCOC(=O)c1ccccc1NS(=O)(=O)Cc1ccccc1[N+](=O)[O-]
7. O=C(O)CN(c1ccccc1[N+](=O)[O-])S(=O)(=O)c1ccccc1
8. CCNc1ncc(C(=O)NC(CCn2ccnc2)c2ccccc2)cn1 (centres unmarked)

Marked response:
108
85.3
103
102
93
92.3
95.6
110

Items follow; give viability at 28.5 h, 10 µM for each.
1. Cc1cc(-c2nnc(SCC(=O)N3CCCc4ccccc43)o2)no1
2. CCNC(=O)Nc1ncc(-c2ccccc2)c2cccnc12
3. O=C(COc1ccc(Cl)cc1Cl)OCCNC1=NS(=O)(=O)c2ccccc21
4. CCc1ccc(-n2cc(-c3ccccn3)nn2)cc1

Marked response:
88
95.3
110
106

* * *

Please provide measured viability at 28.5 h, 10 µM for the entries that follow.
assay procedure: in vitro
settings: human, hela cells, % viability
One number for each entry, in %.

The examples below pair each entry with its known result.
molecule	viability at 28.5 h, 10 µM (%)
COc1ccccc1OCC(=O)NCc1ccc(-c2csnn2)cc1	99.5
Cc1ccn2c(NS(=O)(=O)c3ccc(CCC(=O)O)cc3)c(-c3cccs3)nc2c1	110
Cn1c(SCc2nnc(-c3ccccc3)o2)nnc1C(O)c1ccccc1 (stereo not drawn)	92.3
CCn1c(Cc2ccccc2)nnc1SCC(=O)Nc1cc(Cl)ccc1O	104
Cn1c(C(=O)O)ccc1S(=O)(=O)NCc1ccco1	105
COc1ccccc1NC(=O)C1CCN(C(=O)OC(C)(C)C)CC1	90.5
CCc1nc2c(Oc3nc4ccccc4s3)cccn2c1N(C=O)Cc1ccc(OC)cc1	107
O=C(Nc1ccc(Cl)cc1)C(Cc1ccccc1)N1C(=O)c2cc(Cl)c(Cl)cc2C1=O (stereo not drawn)	99.2

Below are some molecules; for each one, tell me its viability at 28.5 h, 10 µM.
1. CCOC(=O)c1cnc2ccccc2c1NCCN1CCOCC1
2. CC(=O)c1c(-c2cccc3ccccc23)nc2n(CCN3CCCCC3)c3ccccc3n12 [CBK278243C]
3. COc1cc(CN2CCC(C(=O)c3ccc(F)cc3)CC2)cc(OC)c1OC
4. CCC(C)(C)c1ccc(S(=O)(=O)Nc2cc(Cl)ccc2O)cc1

Marked response:
[101, 103, 99.5, 96]

* * *

assay procedure: in vitro
settings: human, hela cells, % viability
measured metric: viability at 28.5 h, 10 µM (%)
Answers are plain numbers, in %.

compound	viability at 28.5 h, 10 µM, %
Cc1cc(COc2nccnc2N2CCN(CCCO)CC2)no1	89.6

Below are some compounds; for each one, tell me its viability at 28.5 h, 10 µM.
1. CNC(=O)c1cccc(NC(=O)c2ccc(C)nc2N2CCOCC2)c1
2. CCCn1ccnc1SCC(=O)Nc1ccc(N(C)C)cc1

Marked response:
95.1
112

Consider the following items and state reported viability at 28.5 h, 10 µM for each.
1. CC[C@H]1CN2CC[C@H]1C[C@@H]2CNC(=O)Nc1cccc(C#N)c1
2. COc1ccccc1-c1ccc(CC2(C(=O)NC3CCCCC3)CCOCC2)cc1
3. CN(C)c1cccc(-c2cc(N3CCN(c4ccccn4)CC3)ncn2)c1
4. OCCN1CC2(CCN(CC3CCCO3)CC2)c2ccccc21 (stereo not shown)
5. CC(=O)c1ccc(CN2CCCN(S(=O)(=O)c3ccc(C(=O)c4ccccc4)cc3)CC2)cc1
6. O=C(NCc1ccco1)[C@H]1CN2CCC1C[C@@H]2Cn1cc(CO)nn1 (stereo partly shown)
7. Cc1cc(C(=O)O)cc(S(=O)(=O)N2CCOCC2)c1C

Marked response:
1: 87.4; 2: 98.4; 3: 104; 4: 90.8; 5: 109; 6: 113; 7: 89.5

* * *

assay procedure: in vitro
settings: human, hela cells, % viability
measured metric: viability at 28.5 h, 10 µM (%)
One number for each entry, in %.

In the examples that follow, each entry is paired with its recorded viability at 28.5 h, 10 µM.
compound	measured metric	readout number
Cc1cnn(C2CCCN(C(=O)CC3C(=O)Nc4ccccc43)C2)c1 (stereo not drawn)	viability at 28.5 h, 10 µM	81.7
CSCCN(CC(=O)O)Cc1ccccc1	viability at 28.5 h, 10 µM	91.1
Cc1cc(=O)c(C#N)c(C)[nH]1	viability at 28.5 h, 10 µM	92.4
CN(C)Cc1cc(C[C@@H]2C[C@H](NCc3ccccn3)C2(C)C)no1	viability at 28.5 h, 10 µM	92.3
CCOC(=O)COc1ccc2nsnc2c1Cl	viability at 28.5 h, 10 µM	91.4

Fill in viability at 28.5 h, 10 µM for each of the 4 compounds listed.
1. COc1ccccc1C(=O)Nc1ccccc1C(=O)Nc1ccc(C(=O)O)cc1
2. Cc1nn(C)c(C)c1CCc1nc(CN2CCN(C)CC2)no1
3. CC(C)(C)c1ccc(COn2c(=O)c(-c3ccccc3Cl)[n+]([O-])c3ccccc32)cc1
4. Cc1ncc([N+](=O)[O-])n1CCSc1nnc(SCc2ccccc2)s1

Marked response:
[94.7, 110, 101, 86.4]

Ref: paper PMC12040169
